Origin of measurements: ChEMBL document CHEMBL1201862

List of EC50 values.
TARGET_OR_SYSTEM: Peroxisome proliferator-activated receptor gamma/Nuclear receptor coactivator 2 (Homo sapiens, UniProt P37231)
Sequence (P37231 whole entry): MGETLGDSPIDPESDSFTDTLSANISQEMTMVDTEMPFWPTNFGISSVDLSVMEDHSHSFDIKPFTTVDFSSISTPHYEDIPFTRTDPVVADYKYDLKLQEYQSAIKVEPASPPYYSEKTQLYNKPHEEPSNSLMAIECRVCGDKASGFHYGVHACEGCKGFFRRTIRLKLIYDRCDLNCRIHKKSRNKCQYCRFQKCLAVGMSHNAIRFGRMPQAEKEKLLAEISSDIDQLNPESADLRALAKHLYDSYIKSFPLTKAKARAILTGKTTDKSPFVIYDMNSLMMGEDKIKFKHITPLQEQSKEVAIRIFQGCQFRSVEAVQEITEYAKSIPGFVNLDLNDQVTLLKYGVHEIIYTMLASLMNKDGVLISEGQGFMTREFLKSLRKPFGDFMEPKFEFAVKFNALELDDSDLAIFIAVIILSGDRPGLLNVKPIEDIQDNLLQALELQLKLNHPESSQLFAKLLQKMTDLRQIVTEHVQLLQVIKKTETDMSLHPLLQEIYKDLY
Sequence (Q15596 whole entry, further chain): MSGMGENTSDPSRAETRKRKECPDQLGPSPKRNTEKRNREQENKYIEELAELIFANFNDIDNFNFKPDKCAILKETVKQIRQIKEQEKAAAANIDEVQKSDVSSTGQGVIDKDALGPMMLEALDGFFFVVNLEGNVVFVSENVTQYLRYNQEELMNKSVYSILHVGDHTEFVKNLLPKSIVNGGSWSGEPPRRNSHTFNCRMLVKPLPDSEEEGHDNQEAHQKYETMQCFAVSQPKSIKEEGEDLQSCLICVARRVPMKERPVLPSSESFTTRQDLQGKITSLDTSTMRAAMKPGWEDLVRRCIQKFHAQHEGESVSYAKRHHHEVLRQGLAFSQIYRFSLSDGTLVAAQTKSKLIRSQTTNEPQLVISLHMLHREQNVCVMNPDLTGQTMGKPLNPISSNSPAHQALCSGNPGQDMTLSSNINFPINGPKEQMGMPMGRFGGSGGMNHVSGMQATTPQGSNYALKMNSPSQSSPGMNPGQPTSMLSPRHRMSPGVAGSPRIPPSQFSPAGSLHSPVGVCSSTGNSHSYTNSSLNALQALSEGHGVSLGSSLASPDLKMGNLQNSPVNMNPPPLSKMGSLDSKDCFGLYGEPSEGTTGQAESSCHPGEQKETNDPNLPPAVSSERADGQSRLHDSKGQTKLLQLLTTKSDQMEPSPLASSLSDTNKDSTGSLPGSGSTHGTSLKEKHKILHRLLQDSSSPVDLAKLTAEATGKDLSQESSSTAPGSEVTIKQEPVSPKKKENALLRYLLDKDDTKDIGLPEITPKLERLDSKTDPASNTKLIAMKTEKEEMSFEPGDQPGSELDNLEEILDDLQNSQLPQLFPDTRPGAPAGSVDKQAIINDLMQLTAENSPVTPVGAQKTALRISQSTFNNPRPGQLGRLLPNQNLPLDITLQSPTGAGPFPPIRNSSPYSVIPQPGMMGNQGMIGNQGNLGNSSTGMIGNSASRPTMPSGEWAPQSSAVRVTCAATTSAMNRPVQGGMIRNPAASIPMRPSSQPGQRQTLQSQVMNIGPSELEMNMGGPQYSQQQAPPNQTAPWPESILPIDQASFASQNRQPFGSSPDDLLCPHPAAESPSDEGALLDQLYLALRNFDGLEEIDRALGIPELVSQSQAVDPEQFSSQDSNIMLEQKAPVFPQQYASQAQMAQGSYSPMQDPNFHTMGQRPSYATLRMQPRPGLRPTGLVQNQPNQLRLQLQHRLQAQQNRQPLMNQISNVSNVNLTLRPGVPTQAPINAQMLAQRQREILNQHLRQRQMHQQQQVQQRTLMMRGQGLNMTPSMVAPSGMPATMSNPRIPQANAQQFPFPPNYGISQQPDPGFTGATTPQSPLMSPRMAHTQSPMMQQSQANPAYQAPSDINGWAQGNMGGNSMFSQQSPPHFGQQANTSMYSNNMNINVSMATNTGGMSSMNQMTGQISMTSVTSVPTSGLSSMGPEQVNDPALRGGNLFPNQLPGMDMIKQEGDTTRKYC
EXPERIMENT_DESCRIPTION: TR-FRET dose response biochemical High Throughput Screening assay for agonists of the steroid receptor coactivator 2 (SRC-2) recruitment by the peroxisome proliferator-activated receptor gamma (PPAR gamma): non-selective agonists. [Related pubchem assays: 1297, 1032 ]
Format: functional

Below, each entry is followed by its recorded EC50 result.
COMPOUND	EC50
O=C1Nc2ccccc2/C1=C1/SC(=S)N(NC(=O)c2cccc(O)c2)C1=O	41 µM (not active)
CCOC(=O)N1CCC(NC(=O)CSc2cc(=O)n(CC)c3ccccc23)CC1	> 79.4 µM (not active)
O=C(Nc1nc(-c2ccc(S(=O)(=O)N3CCCC3)cc2)cs1)C1COc2ccccc2O1 (centres undefined)	27.7 µM (not active)

Kindly review the next compound as well.
In: Consider the compound `CCOC(=O)C1CCN(C(=O)CSc2c3c(nc4ccccc24)CCC3)CC1` and give its recorded EC50.
Out: > 79.4 µM (not active)
